Could you please report measured cytotoxicity at 70.5 h for the items listed next?
# Test summary: Human HepG2 cell viability assay in 384 well format
# Assay type: toxicity, cell-based
# Parameters: dose 125 nL, time 70.5 hour; concentration not given beside the values
# Experimental conditions: HepG2 cells, read-out: Inhibition

Some solved entries appear below for comparison.
COC(=O)C(C)N1CCCc2cc(OC)ccc2C1 (stereo not drawn) ... -4.67%
Cc1cc(NC(=O)CNC2CCc3ncnn3C2)no1 (stereo not drawn) ... -18.6%

List the reported cytotoxicity at 70.5 h of each compound below.
1. O=C(NCc1cn2c(n1)CN(Cc1ccncc1)CC2)C1CCC1
2. Cc1ccccc1NC(=O)Nc1cc(N2CCCC2)ncn1

Key:
["8.23%", "10.8%"]

Need cytotoxicity at 70.5 h for each of these compounds.
1. COCCCN1CC2(CCN(Cc3cc(C(C)C)no3)CC2)CC1=O
2. CCc1nc(CN2CCCN(C(=O)C3CCC3)CC2)cs1

Key:
1: 0.169%; 2: 5.44%

Could you tell me cytotoxicity at 70.5 h for each of these compounds? They are listed below.
1. CCc1ccccc1OCCN(C)C(=O)CCN1CCCO1
2. COc1ccc([C@@H]2NC(=O)N[C@H]3OCCC[C@H]32)cc1

Key:
["-3.75%", "-4.38%"]

The measurements presented in this section are drawn from ChEMBL document CHEMBL3507680.
